- assayed target: sodium-proton exchanger of subtype 3 (NHE3) (Homo sapiens, UniProt P48764)
- Construct: expressed in transfected cells
- Sequence (P48764 26-834, species assumed): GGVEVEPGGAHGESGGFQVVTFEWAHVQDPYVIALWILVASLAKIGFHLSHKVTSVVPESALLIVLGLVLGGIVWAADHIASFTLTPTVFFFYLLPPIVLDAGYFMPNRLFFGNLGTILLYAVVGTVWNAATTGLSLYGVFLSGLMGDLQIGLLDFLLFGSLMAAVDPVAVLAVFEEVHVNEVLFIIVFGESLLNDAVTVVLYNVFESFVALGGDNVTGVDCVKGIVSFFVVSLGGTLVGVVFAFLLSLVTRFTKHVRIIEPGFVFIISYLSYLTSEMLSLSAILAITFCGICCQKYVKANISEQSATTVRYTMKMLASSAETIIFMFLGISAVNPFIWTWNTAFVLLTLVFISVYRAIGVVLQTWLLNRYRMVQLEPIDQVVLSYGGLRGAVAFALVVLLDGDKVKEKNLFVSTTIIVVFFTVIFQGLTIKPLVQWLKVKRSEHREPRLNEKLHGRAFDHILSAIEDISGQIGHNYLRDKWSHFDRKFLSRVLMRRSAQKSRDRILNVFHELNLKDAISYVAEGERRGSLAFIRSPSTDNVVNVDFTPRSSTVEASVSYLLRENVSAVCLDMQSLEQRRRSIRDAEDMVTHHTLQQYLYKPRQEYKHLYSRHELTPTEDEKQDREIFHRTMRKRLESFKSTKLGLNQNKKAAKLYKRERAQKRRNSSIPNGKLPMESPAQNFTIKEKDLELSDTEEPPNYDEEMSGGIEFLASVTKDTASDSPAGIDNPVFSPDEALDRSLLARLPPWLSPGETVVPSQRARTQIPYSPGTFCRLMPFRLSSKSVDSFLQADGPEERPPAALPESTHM
- assay notes: Recovery of intracellular pH (pHi) after acidification in LAP1 cells stably expressing NHE3 (BCECF fluorescence, FLIPR)
- Format: cell-based
- experimental setup: LAP1 cells stably expressing NHE3; pH recovery after acidification; range 1 is % inhibition at 10 μM; read-out: Activity range (inhibitory effect on NHE3)
pIC50: −log10 of the molar value.
Measured pIC50, listed per entry for reference.

Here is how some molecules turned out for pIC50.
molecule=O=C1OCCN1c1cccc(O[C@H]2c3cc(Cl)cc(Cl)c3C[C@@H]2N2CC[C@@H](O)C2)c1 assayed_target="sodium-proton exchanger of subtype 3 (NHE3) (Homo sapiens, UniProt P48764)" test_value="5.00 to 6.00"
molecule="CC(=O)NCc1cccc(O[C@H]2c3ccccc3C[C@@H]2N2CCCC2)c1 (racemic)" assayed_target="sodium-proton exchanger of subtype 3 (NHE3) (Homo sapiens, UniProt P48764)" test_value="> 6.00"
molecule="O=C1CCC(=O)N1c1cccc(O[C@H]2c3ccccc3C[C@@H]2N2CCCC2)c1 (racemic)" assayed_target="sodium-proton exchanger of subtype 3 (NHE3) (Homo sapiens, UniProt P48764)" test_value="5.00 to 6.00"
molecule=Cc1nnc(C)n1-c1ccc(O[C@H]2c3cc(Cl)ccc3C[C@@H]2N2CCCC2)c(Cl)c1 assayed_target="sodium-proton exchanger of subtype 3 (NHE3) (Homo sapiens, UniProt P48764)" test_value="> 6.00"
molecule=CN(CCO)[C@H]1Cc2c(Cl)cc(Cl)cc2[C@@H]1Oc1ccc(S(C)(=O)=O)cc1 assayed_target="sodium-proton exchanger of subtype 3 (NHE3) (Homo sapiens, UniProt P48764)" test_value="> 6.00"

pIC50 lookup needed for CC(=O)Nc1cccc(O[C@@H]2c3cc(Cl)cc(F)c3C[C@H]2N2CCC[C@@H](N)C2)c1 (racemic) , thanks.
> 6.00

Query (molecule): CCN(CC)[C@@H]1Cc2ccccc2[C@H]1Oc1ccc(CCOC)cc1 (racemic) ; field requested: pIC50
5.00 to 6.00

Every entry's value here was drawn from patent US8822449B2.
